- System: UO-31 renal
- procedureText: NCI-60 one-dose screen, 48 h (100 = growth as untreated, 0 = no growth, -100 = all killed)
- settings: 10 µM unless noted
Compounds without any hit were thinned out: in the full panel of roughly 83,000, 20% have a hit.
valueKind: growth (%)
Numeric answer only, unit % assumed.

For orientation, consider the following solved cases.
| mol | growth, % |
| --- | --- |
| CC1(C)CC[C@]2(C(=O)N[C@H](CO)Cc3ccccc3)CC[C@]3(C)C(=CC[C@@H]4[C@@]5(C)CCCNC(C)(C)[C@@H]5CC[C@]43C)[C@@H]2C1 | 66.5 |
| c1ccc2c(c1)CCCc1nnc3nc4ccccc4n3c1-2 | 29.9 |
| CN(C)CCN1C(=O)c2cccc3c(/C=C/CN4C(=O)c5cccc6cccc(c56)C4=O)ccc(c23)C1=O | 72 |
| COc1ccc(-c2cc(-c3ccccc3)nc(N3CCN(CCNc4ccnc5cc(Cl)ccc45)CC3)n2)cc1 | -4.9 |

Given item CS(=O)(=O)Nc1cc(-c2ccc3ncc(C#N)c(Nc4ccc(F)c(Cl)c4)c3c2)cnc1Cl , the value recorded as its growth is -6.94

Given item Fc1cc(Nc2ccc3c(OCCCN4CCOCC4)cccc3n2)ccc1Cl , the value recorded as its growth is 33.3

Given item Cc1ccc(-c2nc(/C=C3/C(=O)Nc4ccc(F)cc43)c3ccccn23)cc1 , the value recorded as its growth is 70.2

Given item O=C(O)[C@@H](Cc1ccc2ccccc2c1)NC(=O)n1c2ccccc2c2ccccc21 , the value recorded as its growth is 38.9

Given item Cc1ccc(S(=O)(=O)OCCCOS(=O)(=O)c2ccc(C)cc2)cc1 , the value recorded as its growth is 71.3

---

- System: EKVX NSCLC
- procedureText: NCI-60 one-dose screen, 48 h (100 = growth as untreated, 0 = no growth, -100 = all killed)
- settings: 10 µM unless noted
This is part of a sample that, as a whole, favours compounds with a hit. Of some 83,000 tested, about 20% had one in any assay.
valueKind: growth (%)
Numeric answer only, unit % assumed.

| compound | reading |
| --- | --- |
| O=S1(=O)C=C(c2ccccc2)C(c2ccccc2)=C1 | 90.1 |
| CO[C@H](C(=O)[C@@H](O)[C@@H](C)O)[C@@H]1Cc2cc3cc(O[C@H]4C[C@@H](O[C@H]5C[C@@H](O)[C@H](O)C(C)O5)[C@H](O)C(C)(O)O4)cc(O)c3c(O)c2C(=O)[C@H]1O[C@H]1C[C@@H](O[C@H]2C[C@@H](O[C@H]3C[C@@H](OC)[C@H](O)C(C)O3)[C@@H](O)C(C)O2)[C@H](O)C(C)O1 (some centres undefined) | 34.7 |
| N#Cc1c(-c2ccccc2)nc(SCc2nnc(-c3ccc(Cl)cc3)o2)[nH]c1=O | 95.5 |
| COC(=O)N1CC(Oc2ccccn2)C2CC1c1ccccc1O2 (centres undefined) | 104 |
| Cc1ccc2c(=O)cc(C(=O)Nc3sc4c(c3C(=O)NCc3cccnc3)CCCC4)oc2c1C | 103 |

Given item CCN1C(=O)N(CC)C2C1N=C(SCc1ccc(Cl)cc1)N2/N=C/C=C/c1ccccc1OC (centres undefined) , the value recorded as its growth is 62.5

Given item C=C1C(=O)O[C@H]2[C@H]1CC/C(COC(=O)c1cc3cc(Cl)ccc3[nH]1)=C\CC[C@@]1(C)O[C@@H]21 , the value recorded as its growth is -83

Given item O=C(Nc1ncc(Cc2cc(C(F)(F)F)ccc2Cl)s1)c1cccs1 , the value recorded as its growth is 57.3

Given item C[n+]1ccc(CCc2c[nH]c3ccccc23)cc1 , the value recorded as its growth is 53.9

Given item CN(C)CCCC1(c2ccc(F)cc2)OCc2cc(-c3cc4ccccc4s3)ccc21 (centres undefined) , the value recorded as its growth is 46.8

Given item O=C1/C(=C\c2cccc3nccnc23)SC(=S)N1CCc1ccc(O)cc1 , the value recorded as its growth is 100

Given item Nc1ncnc2c1N=C(c1ccc3c(c1)OCO3)CC(c1cccc(Nc3ccnc4cc(C(F)(F)F)ccc34)c1)N2 (centres undefined) , the value recorded as its growth is 89.5

Given item CCOC(=O)c1ccccc1-c1c2ccc(=[N+](C)C)cc-2oc2cc(N(C)C)ccc12 , the value recorded as its growth is 34.5

Given item O=C(NNC(=O)c1ccc(NC(=O)c2ccccn2)cc1)Nc1ccc2ccccc2c1 , the value recorded as its growth is 113

Given item CC(C)(C)c1cc(Cl)c(O)c(CNCCO)c1 , the value recorded as its growth is 101

Given item CC(C)CCN(CCC(C)C)CC(O)c1cc2c(c3ccccc13)CCCC2 (centres undefined) , the value recorded as its growth is 73

Given item C=CCOC(=O)C1=C(C)N(CC)C(=O)NC1c1c(Cl)n(C)c2ccccc12 (centres undefined) , the value recorded as its growth is 98.4

---

- System: NCI-H522 lung
- procedureText: NCI-60 one-dose screen, 48 h
- settings: 10 µM unless noted
The panel holds about 83,000 compounds, 20% with a hit somewhere; the sample as a whole holds those more often. The source made the active and inactive calls. The calls were made as follows: active = growth percent below 10; inactive = the rest.
Form entry, call: pick from YES = active, NO = inactive

Use the examples below as a reference point.
| molecule | groupLabel |
| --- | --- |
| C=CCn1c(SCC(=O)Nc2ccc(/C(C)=N/O)cc2)nnc1-c1cc(-c2ccc(S(N)(=O)=O)cc2)nc2ccccc12 | NO |
| COc1ccc(C2=NN(C(C)=O)C(c3cn(-c4ccccc4)nc3-c3ccc(Cl)cc3)C2)cc1 (configuration not stated) | NO |
| COc1ccc(C2=CN3CC=CC3CC2=O)cc1 (configuration not stated) | NO |
| CC(C)(C)n1cc(-c2ccnc(NCCCNS(=O)(=O)c3cccc4ccccc34)c2)c(-c2cccc(F)c2)n1 | NO |
| N[C@H]1CCC[C@@H]1NCCCCN1C(=O)c2cccc3cc([N+](=O)[O-])cc(c23)C1=O | NO |

*Q* In this assay, the call recorded for O=C1/C(=C\c2cccc3nccnc23)SC(=S)N1CCc1ccc(O)cc1 was what?
*A* NO

*Q* In this assay, the call recorded for Cc1nc2ccccc2c(/C=C/c2ccccc2)c1C(=O)/C=C/c1ccccc1 was what?
*A* NO

*Q* In this assay, the call recorded for Cc1ccc(/C=C/C(=O)c2ccc(-n3cc(CN4CCN(c5cc6c(cc5F)c(=O)c(C(=O)O)cn6C5CC5)CC4)nn3)cc2)cc1 was what?
*A* NO

---

- Test system: 786-0 renal
- procedureText: NCI-60 one-dose screen, 48 h
- settings: 10 µM unless noted
The panel holds about 83,000 compounds, 20% with a hit somewhere; the sample as a whole holds those more often. Activity calls are given as the source filed them. How the source made its calls: active means growth percent below 10; inactive means the rest.
Form entry, call: pick from y (active), n (inactive)

Use the examples below as a reference point.
| compound | groupLabel |
| --- | --- |
| COc1cc(-c2nc3sccn3c2-c2ccnc(NCCNS(=O)(=O)c3ccc(Cl)cc3)n2)ccc1F | n |
| O=C(CN1CCN(c2cc3c(cc2F)c(=O)c(C(=O)O)cn3C2CC2)CC1)N/N=C/c1ccco1 | n |
| C=C1C(=O)O[C@H]2[C@H]1CC/C(Cn1cc(CCC)nn1)=C\CC[C@@]1(C)O[C@@H]21 | y |

# next compound below
*Q* In this assay, the call recorded for N#CC1=C(N)Oc2ccc3ccccc3c2C1c1ccc([N+](=O)[O-])cc1 (configuration not stated) was what?
*A* n

---

- Tested on: CCRF-CEM leukemia
- procedureText: NCI-60 one-dose screen, 48 h
- settings: 10 µM unless noted
Compounds without any hit were thinned out: in the full panel of roughly 83,000, 20% have a hit. Calls of active or inactive are those of the source. The calls were made as follows: active = growth percent below 10; inactive = the rest.
Form entry, call: pick from 1.0 for active, 0.0 for inactive

| mol | groupLabel |
| --- | --- |
| Cc1c(CN)cc(-c2ccc(Cl)cc2)n1-c1ccccc1 | 0.0 |
| O=C(Cc1cccc(OC(F)(F)F)c1)Nc1ccc(CCCCc2nnc(NC(=O)Cc3ccccn3)s2)nn1 | 0.0 |
| C#COc1cccc(Nc2ncnc3cc(NC(=O)[C@@H](C)Cl)ccc23)c1 | 1.0 |

# next compound below
*Q* In this assay, the call recorded for Cc1nc2cc(O)c(O)cc2cc1Oc1ccc(NC(=O)Nc2ccc(Cl)c(Cl)c2)cc1 was what?
*A* 0.0

---

- System: NCI-H23 lung
- procedureText: NCI-60 one-dose screen, 48 h (100 = growth as untreated, 0 = no growth, -100 = all killed)
- settings: 10 µM unless noted
Compounds without any hit were thinned out: in the full panel of roughly 83,000, 20% have a hit. Activity calls are given as the source filed them. Rule for the calls: active = growth percent below 10; inactive = the rest.
Below, each of the compounds is paired with its reported growth value.

| compound | reading |
| --- | --- |
| CCN1C(=O)N(CC)C2C1N=C(SCc1ccc(Cl)cc1)N2/N=C/C=C/c1ccccc1OC (stereo not drawn) | 78.2% (inactive) |
| C=C(C)[C@@H]1CCC[C@]2(C(=O)O)CC[C@]3(C)[C@@H](CC[C@@H]4[C@@]5(C)C/C(=C/c6ccncc6)C(=O)C(C)(C)[C@@H]5CC[C@]43C)[C@@H]12 | 20.9% (inactive) |

Note: attention shifts to another entry.
Given item Cc1ccc(C)c2c(C)c(C(=O)Nc3cccc(-n4cccn4)c3)oc12 , the value recorded as its growth is 73.1% [50 µM] (inactive)
